I'd appreciate it if you could supply normalized growth values for the items below.
assay: chemical genetic growth profiling, strain panel (AID 1159580);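 also: tested at 20 µM; growth read once vehicle control cultures reached saturation at 30 °C; 1 = growth at the plate median or of vehicle wells; lower values mean less growth of the strain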; details: S. cerevisiae deletion strains, growth OD, locus YLR268W, strain sec22, stronger effect = lower value
Out of some 5,500 compounds screened, about 2,000 (36%) were called active. Not shown: some 18% with an inconclusive outcome. This is one part of the list.
Please give only the number in your answer, with no unit.

Memo: COc1ccc2c(c1OC)C(=O)O[C@@H]2[C@H]1c2cc3c(cc2CCN1C)OCO3 , reported normalized growth: 1.01

The molecule listed as NCC1CCC(C(=O)O)CC1 (stereo unspecified) has a reported normalized growth of 0.991

Lab note: COc1ccc2c(c1OC)C(=O)O[C@H]2[C@H]1c2cc3c(cc2CCN1C)OCO3 gave normalized growth of 1.01

Form: molecule = CC1=C(CC(=O)O)c2cc(F)ccc2/C1=C\c1ccc(S(C)=O)cc1 (stereo unspecified) ; normalized growth = 1.06

What the record says about c1ccc(N=Nc2ccccc2)cc1 : normalized growth is 0.988

# molecule C=C(C)C1CNC(C(=O)O)C1CC(=O)O (stereo unspecified) ; its normalized growth = 1.02
